Target: T1, mouse MAdCAM expressed on cells (mouse, UniProt Q61826 22-405)
T1 construct: whole, on cells
T1 sequence (looked up): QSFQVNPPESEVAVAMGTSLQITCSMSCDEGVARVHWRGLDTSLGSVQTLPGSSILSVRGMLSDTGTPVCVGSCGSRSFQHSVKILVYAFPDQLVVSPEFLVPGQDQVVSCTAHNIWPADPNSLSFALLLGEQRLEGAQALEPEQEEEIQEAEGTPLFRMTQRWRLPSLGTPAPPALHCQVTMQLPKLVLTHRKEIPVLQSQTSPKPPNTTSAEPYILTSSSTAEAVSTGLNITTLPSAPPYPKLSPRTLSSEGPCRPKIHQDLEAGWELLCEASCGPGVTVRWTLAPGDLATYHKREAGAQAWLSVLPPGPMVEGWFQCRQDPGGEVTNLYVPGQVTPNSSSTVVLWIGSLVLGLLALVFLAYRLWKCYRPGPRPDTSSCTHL
Assay: cell binding
READOUT_TYPE: binding result

-- ask Quick one: binding result for MAdCAM Antibody Table 1 Clone 38 (scFv) scFv: EVQLLESGGGLVQPGGSLRLSCAASGFTFGSYSMSWVRQAPGKGLEWVSAIGTGGGTYYADSVKGRFTISRDNSKNTLYLQMNSLRAEDTAVYYCAKGTPYYYYYGMDVWGQGTMVTVSSGGGGSGGGGSGGGGSGGGGSDIQMTQSPSSLSASVGDRVTITCRASQPLSNWLAWYQQKPGKAPKLLIYAASSLQSGVPSRFSGSGSGTDFTLTISSLQPEDFATYYCQQAISFPLTFGGGTKVEIK ?
-- reply no binding

-- ask # iterate: MAdCAM Antibody Table 1 Clone 31 (scFv) scFv: QVQLVQSGAEVKKPGASVKVSCKASGYTFTSYYMHWVRQAPGQGLEWMGIINPSGGSTSYAQKFQGRVTMTRDTSTSTVYMELSSLRSEDTAVYYCARDTGYSYGRYYYYGMDVWGQGTLVTVSSGGGGSGGGGSGGGGSGGGGSDIQMTQSPSSLSASVGDRVTITCRASQSIGRWLAWYQQKPGKAPKLLIYDASNLQSGVPSRFSGSGSGTDFTLTISSLQPEDFATYYCQQSYSIPITFGQGTKVEIK
-- reply no binding

-- ask # iterate: MAdCAM Antibody Table 1 Clone 64 (scFv) scFv: EVQLLESGGGLVKPGGSLRLSCAASGFAFSSHWMHWVRQAPGKGLEWVAGTSGSGESRDYADFVKGRFTISRDDSKNTLYLQMNSLKTEDTAVYYCARETYYYYYMDVWGKGTTVTVSSGGGGSGGGGSGGGGSGGGGSDIQMTQSPSSLSASVGDRVTITCRASQGISNYLAWYQQKPGKAPKLLIYDAANLEGGVPSRFSGSGSGTDFTLTISSLQPEDFATYYCQQSDIFPPTFGQGTKVEIK
-- reply binds
